FYI, the data here is from paper PMC9482650.

Target: T1, DLG3_3, Q92796
T1 sequence (Q92796 374-475, limits assumed, looked up): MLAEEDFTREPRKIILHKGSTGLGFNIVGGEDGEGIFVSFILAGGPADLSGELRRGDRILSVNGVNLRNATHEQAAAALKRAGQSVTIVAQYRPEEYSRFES
Test: holdup assay
Set-up: key: below the threshold = too weak to quantify, mostly under pKd 3.1 to 4
Details: plain residues with an end cap or a label only (N-terminal biotin on a linker: ado-ado)
QUANTITY KIND: pKd

Sample answers from the record:
>>> reading("QRYPGNQTTC [CCL24, O00175]")
"below the threshold"
>>> reading("SQPLLVHDDV [KIT, P10721]")
"below the threshold"
>>> reading("KAEEKPPSKV [SCN4B, Q8IWT1]")
"below the threshold"
>>> reading("ADEMICITTL [CACNA1D, Q01668]")
"below the threshold"
>>> reading("RGKNRRQSIF [CDK18, Q07002]")
3.71

// query pKd value for entry GVHSNDHSVV [LPAR1, Q92633]
below the threshold

Try this binder too: PSDSVGKDVF [EGLN1, Q9GZT9]
below the threshold

Try this binder too: TNSKQGETTV [FZD1, Q9UP38]
4.13
